measured on: UBE2L6
assay name: reporter assay of Huesken 2005; also: test concentration or dose not given here
measurement parameters: siRNA
Oligonucleotides are written 5' to 3', each unit as a sugar letter and its base; * is a phosphorothioate linkage, no mark a phosphodiester; rarer units and linkages stand in square brackets, end groups in braces. Plain capitals give the bases only. d = 2'-deoxy (DNA); r = 2'-OH (RNA)
measure: normalised inhibition (eCFP-eYFP dual reporter)

[[record]]
substance = "sense rUrCrCrUrCrCrUrArCrCrCrGrArCrCrArArCrCdTdT / antisense rGrGrUrUrGrGrUrCrGrGrGrUrArGrGrArGrGrAdGdA"
value = "49.5%"

[[record]]
substance = "sense rUrUrCrCrCrGrCrCrGrGrArGrUrArUrCrCrGrUdTdT / antisense rArCrGrGrArUrArCrUrCrCrGrGrCrGrGrGrArAdGdC"
value = "43%"

[[record]]
substance = "sense rCrCrUrArCrCrCrGrArCrCrArArCrCrUrCrCrCdTdT / antisense rGrGrGrArGrGrUrUrGrGrUrCrGrGrGrUrArGrGdAdG"
value = "55.6%"

